Entry source: paper PMC7156458

System: l(2)mbn cells
Experimental details: cytotoxicity in Drosophila l(2)mbn cells
Format: cell-based
Test parameters: Drosophila melanogaster, cytotoxicity, average±SEM, read-out: IC50
Consider the following compounds; for each one, report its IC50.
Answers are plain numbers, in µM.

C=C1CC[C@H]2[C@]3(C)C[C@H](C=C(C)C)O[C@H]3CC[C@]2(C)[C@@H]1Cc1c(OC)oc(CO)c(C)c1=O | 6

Consider now this further compound.
Return IC50 (reported value) for this compound: C=C1CC[C@@H]2[C@](C)(CC[C@H]3O[C@H](C=C(C)C)C[C@@]23C)[C@@H]1Cc1c(OC)oc(CO)c(C)c1=O
1.45
